- system.under.test: A3 adenosine receptors in mouse brain membranes (Mus musculus, UniProt Q61618)
- Construct: in mouse brain membranes
- Sequence (Q61618 whole entry): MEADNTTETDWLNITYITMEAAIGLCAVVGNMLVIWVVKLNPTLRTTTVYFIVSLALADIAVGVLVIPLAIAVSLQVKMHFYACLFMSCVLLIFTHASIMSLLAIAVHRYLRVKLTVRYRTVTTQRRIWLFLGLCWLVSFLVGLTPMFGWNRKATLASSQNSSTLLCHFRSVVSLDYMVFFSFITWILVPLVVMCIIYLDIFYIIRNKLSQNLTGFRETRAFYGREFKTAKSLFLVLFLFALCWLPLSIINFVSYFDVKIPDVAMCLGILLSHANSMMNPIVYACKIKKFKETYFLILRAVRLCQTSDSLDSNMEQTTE
- protocol.text: [125I]AB-MECA saturation binding to A3 receptors in mouse brain membranes in the presence of 100 nM CPX
- reported.conditions: mouse cerebellar membranes
readout.label: Kd (nM)

• CNC(=O)[C@H]1O[C@@H](n2cnc3c(NCc4ccc(N)c([125I])c4)ncnc32)[C@H](O)[C@@H]1O [[^125 I]AB-MECA] = 1.39

----------
- system.under.test: A1 receptors from rat brain membranes (Rattus norvegicus, UniProt P25099)
- Construct: Rat cerebral cortical and striatal membranes were prepared; from tissue; host or cells: rat brain (cerebral cortical) membranes
- protocol.text: biochemical
- Type: binding
- reported.conditions: at 100 μM; read-out: A1 percent displacement
# inhibition at 100 µM >= 30% gives satisfied, anything below gives not satisfied

• Cc1cn([C@H]2C[C@H](O)[C@@H](CO)O2)c(=O)[nH]c1=O [Compound 83, thymidine, reference compound] = not satisfied
• Cn1cnc2c(=O)[nH]c(=O)n(C)c21 [Compound 107, 3,9-dimethylX, reference compound] = not satisfied
• O=c1ccn([C@@H]2O[C@H](CO)[C@@H](O)[C@H]2O)c(=O)[nH]1 [Compound 82, uridine, reference compound] = not satisfied
• Nc1ncnc2c1ncn2[C@@H]1O[C@H](CO)C[C@H]1O [Compound 72, 3'-deoxyadenosine, reference compound] = not satisfied
• Nc1nc2c(ncn2[C@@H]2O[C@H](CO)[C@@H](O)[C@H]2O)c(=S)[nH]1 [Compound 88, 6-thioguanosine, reference compound] = satisfied

----------
- system.under.test: A1 receptors from rat brain membranes (Rattus norvegicus, UniProt P25099)
- Construct: Rat cerebral cortical and striatal membranes were prepared; from tissue; host or cells: rat brain (cerebral cortical) membranes
- Sequence (P25099 1-326): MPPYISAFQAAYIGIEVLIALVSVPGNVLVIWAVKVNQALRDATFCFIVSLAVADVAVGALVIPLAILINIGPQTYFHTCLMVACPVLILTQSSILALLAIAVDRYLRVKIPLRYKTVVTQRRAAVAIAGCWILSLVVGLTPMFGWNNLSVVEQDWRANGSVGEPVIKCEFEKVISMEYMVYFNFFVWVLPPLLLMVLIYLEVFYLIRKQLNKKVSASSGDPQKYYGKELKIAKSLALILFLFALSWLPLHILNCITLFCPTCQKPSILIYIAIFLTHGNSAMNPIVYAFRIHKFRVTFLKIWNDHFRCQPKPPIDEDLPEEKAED
- protocol.text: biochemical
- Assay type: binding
pKi: −log10 of the molar value.
readout.label: pKi

• Nc1c2ncn([C@@H]3O[C@H](CO)[C@@H](O)[C@H]3O)c2nc[n+]1[O-] [Compound 34, adenosine-N^1 -oxide, reference compound] = 6.61
• Nc1ncnc2c1ncn2[C@@H]1O[C@H](COP(=O)(O)O)[C@@H](O)[C@H]1O [Compound 78, adenosine-5'-monophosphate, reference compound] = 4.32
• CNC(=O)[C@H]1O[C@@H](n2cnc3c(NCc4cccc(N=C=S)c4)ncnc32)[C@H](O)[C@@H]1O = 6.84

----------
Catalogue of inhibition at 100 µM readings, one per entry.
- system.under.test: A1 receptors from rat brain membranes (Rattus norvegicus, UniProt P25099)
- Construct: Rat cerebral cortical and striatal membranes were prepared; from tissue; host or cells: rat brain (cerebral cortical) membranes
- protocol.text: biochemical
- Type: binding
- reported.conditions: at 100 μM; read-out: A1 percent displacement
readout.label: inhibition at 100 µM (%)

- Cn1cnc2[nH]c(=O)[nH]c(=O)c21 [Compound 101, 7-methylX, reference compound]: 52.3
- CO[C@@H]1[C@H](O)[C@@H](CO)O[C@H]1n1cnc2c(N)ncnc21 [Compound 71, 2'-O-methyladenosine, reference compound]: 29.4
- O=c1[nH]c(=O)c2ncn([C@@H]3O[C@H](CO)[C@@H](O)[C@H]3O)c2[nH]1 [Compound 81, xanthosine, reference compound]: 9.1
- CC(C)(C)OC(=O)NCCNC(=O)[C@H]1O[C@@H](n2cnc3c(N)ncnc32)[C@H](O)[C@@H]1O [Compound 26]: 0
- CNC(=O)[C@H]1O[C@@H](n2cnc3c(NCc4ccc(S(=O)(=O)O)cc4)ncnc32)[C@H](O)[C@@H]1O [Compound 53]: 0
- CNC(=O)[C@H]1O[C@@H](n2cnc3c(=O)[nH]cnc32)[C@H](O)[C@@H]1O [Compound 90, inosine-5'-N-methyluronamide]: 0
- Nc1ncnc2c1ncn2[C@H]1C[C@H](O)[C@@H](CO)O1 [Compound 70, 2'-deoxyadenosine, reference compound]: 30.9
- OC[C@H]1O[C@@H](n2cnc3c(=S)[nH]cnc32)[C@H](O)[C@@H]1O [Compound 89, 6-thiopurine riboside, reference compound]: 61.2

Entry source: patent US5773423A
